Reported BCM serum Ca is given for each of the following compounds.
- Organism: Rattus norvegicus
- test-name: Bone calcium-mobilizing (BCM) activity at 260 pmol/day *7day in vitamin D deficient rats on a low-calcium diet ([…])
- Assay type: functional
# unit: mg 100ml-1 | format: bare number

Consider the following illustrative entries.
C=C1/C(=C\C=C2/CCC[C@]3(C)[C@@H]([C@H](C)CCCC(C)(C)O)CC[C@@H]23)C[C@@H](O)[C@H](C)[C@H]1O (stereo in doubt; form 2)    4.4
C=C1/C(=C\C=C2/CCC[C@]3(C)[C@@H]([C@H](C)CCCC(C)(C)O)CC[C@@H]23)C[C@@H](O)[C@@H](C)[C@H]1O (stereo in doubt; form 1)    4.9
C=C1/C(=C\C=C2/CCC[C@]3(C)[C@@H]([C@H](C)CCCC(C)(C)O)CC[C@@H]23)C[C@@H](O)[C@@H](C)[C@@H]1O (stereo in doubt; form 2)    4.1
C=C1/C(=C\C=C2/CCC[C@]3(C)[C@@H]([C@H](C)CCCC(C)(C)O)CC[C@@H]23)C[C@H](O)[C@H](C)[C@@H]1O (stereo in doubt; form 1)    4.2
C=C1/C(=C\C=C2/CCC[C@]3(C)[C@@H]([C@H](C)CCCC(C)(C)O)CC[C@@H]23)C[C@H](O)[C@H](C)[C@H]1O (stereo in doubt; form 2)    3.9

Input: Item C=C1/C(=C\C=C2/CCC[C@]3(C)[C@@H]([C@H](C)CCCC(C)(C)O)CC[C@@H]23)C[C@@H](O)[C@@H](C)[C@@H]1O (stereo in doubt; form 1) : provide BCM serum Ca
Output: 4.6

---

- System: Vitamin D-binding protein (Bos taurus)
- test-name: Binding affinity for calf serum vitamin D-binding protein
Reported Relative potency is given for each of the following compounds.
Please respond with just the number, no unit label.

C=C1/C(=C\C=C2/CCC[C@]3(C)[C@@H]([C@@H](C)CCCC(C)(C)O)CC[C@@H]23)C[C@H](O)[C@@H](C)[C@H]1O (stereo in doubt; form 2)    1300

Now consider a different compound.
Input: Item C=C1/C(=C\C=C2/CCC[C@]3(C)[C@@H]([C@@H](C)CCCC(C)(C)O)CC[C@@H]23)C[C@H](O)[C@@H](C)[C@@H]1O (stereo in doubt; form 2) : provide Relative potency
Output: 21

---

- System: HL-60
- test-name: Differentiation inducing effect on HL-60 cells
- Type: functional, Homo sapiens
# label = class 1 if Relative potency >= 10 else class 0

Solved cases (5 shown):
C=C1/C(=C\C=C2/CCC[C@]3(C)[C@@H]([C@H](C)CCCC(C)(C)O)CC[C@@H]23)C[C@@H](O)[C@@H](C)[C@H]1O (stereo in doubt; form 2)    class 0
C=C1/C(=C\C=C2/CCC[C@]3(C)[C@@H]([C@H](C)CCCC(C)(C)O)CC[C@@H]23)C[C@@H](O)[C@H](C)[C@@H]1O (stereo in doubt; form 2)    class 1
C=C1/C(=C\C=C2/CCC[C@]3(C)[C@@H]([C@H](C)CCCC(C)(C)O)CC[C@@H]23)C[C@@H](O)[C@H](C)[C@H]1O (stereo in doubt; form 1)    class 0
C=C1/C(=C\C=C2/CCC[C@]3(C)[C@@H]([C@@H](C)CCCC(C)(C)O)CC[C@@H]23)C[C@H](O)[C@@H](C)[C@H]1O (stereo in doubt; form 1)    class 1
C=C1/C(=C\C=C2/CCC[C@]3(C)[C@@H]([C@H](C)CCCC(C)(C)O)CC[C@@H]23)C[C@H](O)[C@H](C)[C@H]1O (stereo in doubt; form 1)    class 0

Input: Exam item: decide whether the reported Relative potency for C=C1/C(=C\C=C2/CCC[C@]3(C)[C@@H]([C@@H](C)CCCC(C)(C)O)CC[C@@H]23)C[C@H](O)[C@@H](C)[C@H]1O (stereo in doubt; form 2) is at least 10.
Output: class 0

Input: Exam item: decide whether the reported Relative potency for C=C1/C(=C\C=C2/CCC[C@]3(C)[C@@H]([C@H](C)CCCC(C)(C)O)CC[C@@H]23)C[C@@H](O)[C@H](C)[C@H]1O (stereo in doubt; form 2) is at least 10.
Output: class 0
